Target: EeAChE PAS (Electrophorus electricus)
Construct: purchased Sigma-Aldrich type VI-S
Sequence (O42275 24-633): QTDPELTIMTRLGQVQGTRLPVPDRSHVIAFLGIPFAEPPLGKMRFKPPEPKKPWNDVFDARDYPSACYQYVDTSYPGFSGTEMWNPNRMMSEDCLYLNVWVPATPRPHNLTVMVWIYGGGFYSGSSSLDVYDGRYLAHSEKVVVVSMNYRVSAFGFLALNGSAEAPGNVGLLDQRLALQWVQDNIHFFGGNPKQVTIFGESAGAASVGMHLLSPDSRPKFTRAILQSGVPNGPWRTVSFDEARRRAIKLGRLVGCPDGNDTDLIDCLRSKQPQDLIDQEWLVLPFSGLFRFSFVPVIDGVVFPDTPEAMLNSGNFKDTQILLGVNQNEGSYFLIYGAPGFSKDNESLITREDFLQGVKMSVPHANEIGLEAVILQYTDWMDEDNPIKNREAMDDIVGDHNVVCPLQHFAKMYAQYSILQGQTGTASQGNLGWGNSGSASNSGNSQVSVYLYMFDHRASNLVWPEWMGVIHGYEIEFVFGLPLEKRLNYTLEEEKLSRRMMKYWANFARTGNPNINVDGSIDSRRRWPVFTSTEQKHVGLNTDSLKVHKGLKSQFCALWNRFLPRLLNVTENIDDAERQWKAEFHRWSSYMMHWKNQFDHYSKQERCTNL
Assay: biochemical
Type: binding
Details: compound 20 µM; EeAChE 7 µM, PI 8 µM; means ± SEM (n = 3); read-out: PI Displacement, 20 µM
ATTRIBUTE MEASURED: inhibition at 20 µM (%)
# output: bare number, implied unit %

Request: What does the data say about its inhibition at 20 µM? Entry: CN(C)c1ccc2c(c1)Sc1cc(N(C)C)ccc1N2C(=O)CCn1c2c(c3ccccc31)CCCCC2 [Compound 4j]
Result: 23.8

Request: # query: inhibition at 20 µM of entry Cc1ccc2c(c1)c1c(n2CCC(=O)N2c3ccc(N(C)C)cc3Sc3cc(N(C)C)ccc32)CCCC1 [Compound 4c]
Result: 31.8

Request: # lookup: inhibition at 20 µM of CN(C)c1ccc2c(c1)Sc1cc(N(C)C)ccc1N2C(=O)CCn1c2c(c3ccccc31)CCCCCC2 [Compound 4m]
Result: 37.4

Request: Report inhibition at 20 µM for CN(C)c1ccc2c(c1)Sc1cc(N(C)C)ccc1N2C(=O)CCn1c2c(c3ccccc31)CCC2 [Compound 4a] please.
Result: 20.9

Request: Fill in: inhibition at 20 µM of CN(C)c1ccc2c(c1)Sc1cc(N(C)C)ccc1N2C(=O)CCn1c2c(c3cc(OC(F)(F)F)ccc31)CCCC2 [Compound 4h] is ___
Result: 33.8

Request: Item under review: Cc1ccc2c(c1)c1c(n2CCC(=O)N2c3ccc(N(C)C)cc3Sc3cc(N(C)C)ccc32)CCCCCC1 [Compound 4n] . Reported inhibition at 20 µM?
Result: 28.3

Request: Recorded inhibition at 20 µM of CN(C)c1ccc2c(c1)Sc1cc(N(C)C)ccc1N2C(=O)CCn1c2c(c3ccccc31)CCCC2 [Compound 4b] , please.
Result: 27.9

Request: Fill in: inhibition at 20 µM of CN(C)c1ccc2c(c1)Sc1cc(N(C)C)ccc1N2C(=O)CCn1c2c(c3cc(OC(F)(F)F)ccc31)CCCCC2 [Compound 4l] is ___
Result: 17

Request: Would you mind telling me what inhibition at 20 µM value was observed for COc1ccc2c(c1)c1c(n2CCC(=O)N2c3ccc(N(C)C)cc3Sc3cc(N(C)C)ccc32)CCCC1 [Compound 4d] ?
Result: 28

Request: Looking for the measured inhibition at 20 µM of CC1CCc2c(c3cc(OC(F)(F)F)ccc3n2CCC(=O)N2c3ccc(N(C)C)cc3Sc3cc(N(C)C)ccc32)C1 (centres unmarked) [Compound 4i] , can you help?
Result: 32.5

Request: Form field: reported inhibition at 20 µM of Cc1ccc2c(c1)c1c(n2CCC(=O)N2c3ccc(N(C)C)cc3Sc3cc(N(C)C)ccc32)CCCCC1 [Compound 4k]
Result: 15.8

Request: Endpoint output: inhibition at 20 µM of CC1CCc2c(c3cc(C(F)(F)F)ccc3n2CCC(=O)N2c3ccc(N(C)C)cc3Sc3cc(N(C)C)ccc32)C1 (centres unmarked) [Compound 4g] . Value?
Result: 32.8

Request: Quick check: inhibition at 20 µM of COc1ccc2c(c1)c1c(n2CCC(=O)N2c3ccc(N(C)C)cc3Sc3cc(N(C)C)ccc32)CCC(C)C1 (centres unmarked) [Compound 4e] ?
Result: 23

Request: Entry CN(C)c1ccc2c(c1)Sc1cc(N(C)C)ccc1N2C(=O)CCn1c2c(c3cc(F)ccc31)CCCC2 [Compound 4f] has what inhibition at 20 µM?
Result: 31.9
